The reader will find reported Cmax values listed item by item below.
METHOD NOTES: In vivo pharmacokinetics
Set-up: species or system mouse
COND: male, C57/BL6, mouse; Oral, 5 mg/kg, mice, plasma
Procedure: Male C57/BL6 mice were used in the study and assessed for a single dose (5 mg/kg) administration. […] The area under the plasma concentration-time curve (AUCinf) was calculated from time 0 to infinity where the Cmax is the maximal concentration achieved in plasma and t1/2 is the terminal elimination half-life. Oral bioavailability was calculated as AUCOral/AUCIV*100.
Give just the numeric value; ng/mL need not be written.

# COMPOUND, Cmax, ng/mL
data = [
    ("CCCCC1(C2CCCC2)Cc2cc(OCCCCCC(=O)O)c(Cl)c(Cl)c2C1=O (centres unmarked)", 661),
]

Prompt: Query (compound): CCCCC1(C2CCCC2)Cc2cc(OCCCC(=O)O)c(Cl)c(Cl)c2C1=O (centres unmarked) ; field requested: Cmax
Completion: 781
